Value source: PubChem BioAssay (NCI)

Test system: CCRF-CEM leukemia
Protocol Summary: NCI-60 one-dose screen, 48 h
Applied Conditions: 10 µM unless noted
The panel holds about 83,000 compounds, 20% with a hit somewhere; the sample as a whole holds those more often. Activity calls are given as the source filed them. Rule for the calls: active = growth percent below 10; inactive = the rest.
Classes used: active, inactive

Compound String	Assigned Label
C=C(C)[C@@H]1CC[C@]2(C(=O)NCCNCCNCCN)CC[C@]3(C)[C@H](CC[C@@H]4[C@@]5(C)CCC(=O)C(C)(C)[C@@H]5CC[C@]43C)[C@@H]12	active
NS(=O)(=O)c1ccc(CCN2C(=O)/C(=C\c3ccccc3)C=C2c2ccc(Cl)cc2)cc1	inactive
CCCCCn1c(C)cc(/C=C\c2ccc3cc(C)ccc3[n+]2C)c1C	active
CCCC[C@@H](C=O)NC(=O)[C@H](CC(C)C)NC(=O)[C@H](CC(C)C)NC(=O)OCc1ccccc1	active
O=C(Nc1ccc(CN2CCOCC2)c(C(F)(F)F)c1)c1nc2ccc3[nH]ncc3c2c2c1CCCC2	inactive
CC1(C)CC[C@]23CC[C@]4(C)[C@H](CC[C@@H]5[C@@]6(C)C/C(=C/c7cccnc7)C(=O)C(C)(C)[C@@H]6CC[C@]54C)[C@H]2[C@H]1OC3=O	inactive
O=C(N/N=C\c1cc(Cl)ccc1O)N/N=C/c1cc(Cl)ccc1O	inactive
O=C(Nc1cccc2ccccc12)c1cc2ccccc2cc1O	inactive
CCN(CC)c1ccc(/C=C/C=C2\NC(=O)NC2=O)cc1	inactive

###

Tested on: ACHN renal
Protocol Summary: NCI-60 one-dose screen, 48 h
Applied Conditions: 10 µM unless noted
This is part of a sample that, as a whole, favours compounds with a hit. Of some 83,000 tested, about 20% had one in any assay. Calls of active or inactive are those of the source. Rule for the calls: active = growth percent below 10; inactive = the rest.
Classes used: label 1 for active, label 0 for inactive

Molecule	Target Desc	Assigned Label
Cc1ccc(-c2cn(C/C=C3\C=CN(S(=O)(=O)c4ccccc4)CC3)nn2)cc1	ACHN renal	label 0
Nc1cc(N)c(N=Nc2ccc(S(=O)(=O)O)cc2)cc1N=Nc1ccc(-c2ccc(N=Nc3ccc(O)c(C(=O)O)c3)cc2)cc1	ACHN renal	label 0
CCCn1ccnc1C(O)c1ccc(OCc2ccccc2)c(OC)c1 (stereo not drawn)	ACHN renal	label 0
CCN(CC)CCS(=O)(=O)CCNc1ccnc2cc(Cl)ccc12	ACHN renal	label 1
Cc1cnc(N)nc1OCCNC(=O)c1cccc(-c2ccc(S(=O)(=O)Nc3ccc4c(c3)N(C(=O)C3CC3)CCC4)cc2)c1	ACHN renal	label 0
Nc1ccc2c(c1)Cc1cc(NC(=O)C(F)(F)F)ccc1-2	ACHN renal	label 0
COc1cc(C(=O)/C=C/c2c(-c3ccc(F)cc3)nc3sccn23)cc(OC)c1OC	ACHN renal	label 0
Cc1ccc2c(c1)C(C)Cc1c(Cl)ncnc1N2C (stereo not drawn)	ACHN renal	label 0
Nc1nc(N)c2c(n1)NC(c1ccc(F)cc1)C1CCc3ccccc3C1=N2 (stereo not drawn)	ACHN renal	label 0
COc1ccc2c(c1)c(-c1noc(C(=O)c3cn(C)c4ncc(Br)cc34)n1)cn2C	ACHN renal	label 0
O=C1COCCN1c1ccc(NCc2cn(Cc3ccccc3)c3ccccc23)cc1	ACHN renal	label 0
O=C(COc1cccc(/C=C2\Oc3ccccc3C2=O)c1)c1ccc([N+](=O)[O-])cc1	ACHN renal	label 0
COc1ncnc2c(-c3ccccc3)cn(COCc3ccccc3)c12	ACHN renal	label 0
CC1(C)[C@@H](NOCCCN)CC[C@]2(C)[C@H]3C(=O)C=C4[C@@H]5C[C@](C)(C(=O)O)CC[C@]5(C)CC[C@@]4(C)[C@]3(C)CC[C@@H]12	ACHN renal	label 1
Cc1cccc(C[C@H](NC(=O)Nc2ccc(Cl)cc2F)C(=O)N[C@@H]2C(=O)N3C[C@H](OC(=O)CCN(C)C)C[C@H]3C(=O)N3CCCC[C@H]3C(=O)N[C@@H](C)C(=O)N3C[C@H](C)C[C@H]3C(=O)O[C@H]2C)c1	ACHN renal	label 0
N#Cc1c(Cl)nc(SCC2CO2)nc1-c1ccccc1 (stereo not drawn)	ACHN renal	label 0
COc1cc2c(c(OC)c1OC)-c1cc(I)c(O)cc1[C@@H](NC(C)=O)CC2	ACHN renal	label 0
CC(C)C1=NOC(=O)C1=Cc1cn(-c2ccccc2)nc1-c1ccccc1	ACHN renal	label 0
CCN(CC)CCCCCCNc1cccc2cc(Br)cnc12	ACHN renal	label 0
[2H]C1([2H])CCN(C(=O)C2CC2)c2cc(NS(=O)(=O)c3ccc(-c4cccc(C(N)=O)c4)cc3)ccc21	ACHN renal	label 0
N#C/C(C(=O)c1ccccc1)=C1/C(=O)Nc2ccc(Br)cc21	ACHN renal	label 0
COc1ccc2[nH]c(C(=O)N3CCN(C(=O)OCc4ccc5c(Br)cc(Br)c(O)c5n4)CC3)cc2c1	ACHN renal	label 1
CNc1cc(C(=O)O)nc(NC)n1	ACHN renal	label 0
Cc1ccc(S(=O)(=O)n2cc(C(=O)C(=O)N3CCCCC3)c3ccccc32)cc1	ACHN renal	label 0
CCN(CC)c1ccc2cc(C(Nc3ccc(Cl)cc3)c3nnnn3C(C)(C)C)c(=O)oc2c1 (stereo not drawn)	ACHN renal	label 0
CCOC(=O)C(c1ccccc1)N1C(=O)c2ccccc2C1=O (stereo not drawn)	ACHN renal	label 0
NC(=O)c1c(NC(=O)COC(=O)Cc2ccccc2F)sc2c1CCC2	ACHN renal	label 0
CC(=O)OC[C@]12CC[C@@H](C(=O)CBr)[C@@H]1[C@H]1CC[C@@H]3[C@@]4(C)CCCNC(C)(C)[C@@H]4CC[C@@]3(C)[C@]1(C)CC2	ACHN renal	label 1
O=C(NCCCCCCCNC(=O)OCc1ccc2c(Cl)cc(Cl)c(O)c2n1)OCc1ccc2c(Cl)cc(Cl)c(O)c2n1	ACHN renal	label 1
CC(C)(C)c1cc(C(=O)N2CCC(C(=O)NCCN)CC2)cc(C(C)(C)C)c1	ACHN renal	label 0
CC(C)[N+](C)(C)CC(O)COc1cccc2ccccc12 (stereo not drawn)	ACHN renal	label 0
Cn1cc(-c2noc(-c3cn(C)c4ncccc34)n2)c2cc(Cl)ccc21	ACHN renal	label 0
O=C(O)c1cn(C2CC2)c2cc(N3CCN(Cc4cc(Cl)ccc4O)CC3)c(F)cc2c1=O	ACHN renal	label 0
NNC(=O)c1ccc(C(=O)NN)cc1	ACHN renal	label 0
O=S(=O)(NCCCNc1nccc(-c2c(-c3cccc(F)c3)nc3occn23)n1)c1cccc2ccccc12	ACHN renal	label 0
CCc1ccc(-c2ccc(COc3ccc(CC4SC(=O)NC4=O)cc3)cc2)cc1 (stereo not drawn)	ACHN renal	label 0
COc1ccc(/C=C/C(=C/c2c(O)[nH]c3cc(Br)ccc23)N=O)cc1	ACHN renal	label 0
COc1ccc(C(=O)c2nccc3cc(OC)c(OC)cc23)cc1OC	ACHN renal	label 0
